Molecular target: T1, cynomolgus monkey IL-4Rα (cynomolgus monkey, UniProt P24394 26-231 (human entry), limits assumed)
T1 construct: also called Cyno IL-4Rα; cyIL-4Rα
T1 chain: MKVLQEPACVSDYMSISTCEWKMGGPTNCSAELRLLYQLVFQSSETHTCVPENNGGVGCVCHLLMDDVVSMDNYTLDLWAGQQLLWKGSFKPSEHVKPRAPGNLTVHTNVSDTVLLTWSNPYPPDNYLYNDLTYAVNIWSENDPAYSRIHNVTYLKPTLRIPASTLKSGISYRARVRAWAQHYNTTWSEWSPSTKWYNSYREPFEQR
Assay: SPR, Carterra LSA;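 further: antibodies captured on an anti-human Fc sensor chip, antigen injected at several concentrations, association and dissociation rates fitted with a 1:1 Langmuir model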
Could you please report measured KD Relative to Dupilumab for the items listed next?
Answers are plain numbers.

Would you please look over these solved cases?
Construct 44 (mAb485) (antibody, IgG4, V domains shown, VH/VL only) VH: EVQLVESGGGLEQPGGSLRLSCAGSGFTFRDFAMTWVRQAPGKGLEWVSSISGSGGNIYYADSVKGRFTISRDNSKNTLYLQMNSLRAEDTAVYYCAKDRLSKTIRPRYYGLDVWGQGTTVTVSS VL: DIVMTQSPLSLPVTPGEPASISCRSTQSLLYSIGKNYVDWYLQKSGQSPQLLIYEGNNRASGVPDRFSGSGSGTDFTLKISRVEAEDVGFYYCMQSLTSPYTFGQGTKLEIK | 2.03
Construct 6 (mAb415) (antibody, IgG4, V domains shown, VH/VL only) VH: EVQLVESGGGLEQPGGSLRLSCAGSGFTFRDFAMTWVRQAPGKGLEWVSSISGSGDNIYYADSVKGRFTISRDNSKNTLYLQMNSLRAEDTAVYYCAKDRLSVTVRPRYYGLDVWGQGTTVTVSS VL: DIVMTQSPLSLPVTPGEPASISCRSSQGLLYSIGYNYVDWYLQKSGQSPQLLIYLGNKRASGVPDRFSGSGSGTDFTLKISRVEAEDVGFYYCMQSLQTPYTFGQGTKLEIK | 0.09

Then this binder:
Entry Construct 11 (mAb420) (antibody, IgG4, V domains shown, VH/VL only) VH: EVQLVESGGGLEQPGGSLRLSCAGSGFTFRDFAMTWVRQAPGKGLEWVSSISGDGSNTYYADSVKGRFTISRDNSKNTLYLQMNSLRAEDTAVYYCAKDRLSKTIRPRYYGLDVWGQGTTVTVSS VL: DIVMTQSPLSLPVTPGEPASISCRSSQSVLYSIGYNYVDWYLQKSGQSPQLLIYLGNKRASGVPDRFSGSGSGTDFTLKISRVEAEDVGFYYCMQSLQTPYTFGQGTKLEIK — recorded KD Relative to Dupilumab = 0.15
